Target: A. mexicanus T2R4 (Astyanax mexicanus, UniProt A0A3B1ICP8)
Sequence (A0A3B1ICP8 2-338): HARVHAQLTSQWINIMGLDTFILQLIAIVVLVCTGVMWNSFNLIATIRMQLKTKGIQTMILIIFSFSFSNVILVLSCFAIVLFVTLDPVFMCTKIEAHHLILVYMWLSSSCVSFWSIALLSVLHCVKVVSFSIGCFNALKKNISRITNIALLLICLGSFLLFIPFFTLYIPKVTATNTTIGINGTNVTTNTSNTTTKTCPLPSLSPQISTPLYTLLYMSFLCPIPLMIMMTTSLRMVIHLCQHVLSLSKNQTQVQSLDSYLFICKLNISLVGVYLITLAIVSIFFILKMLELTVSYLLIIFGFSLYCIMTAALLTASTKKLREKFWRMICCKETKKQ
Assay: Calcium mobilization assay, HEK293T cells stably expressing T2R4
quantity.measured: pEC50
Scale note: pEC50 = -log10(concentration in M).

Challenge: Field request: pEC50 | item: COc1ccc2c(c1)[C@]13CCCC[C@@H]1[C@H](C2)N(C)CC3
Response given: 2.84
